- Measurement target: aurora A kinase (AURKA) (Homo sapiens, UniProt O14965)
- Construct: purchased BPS Bioscience (assay run externally by the vendor)
- Sequence (O14965 whole entry): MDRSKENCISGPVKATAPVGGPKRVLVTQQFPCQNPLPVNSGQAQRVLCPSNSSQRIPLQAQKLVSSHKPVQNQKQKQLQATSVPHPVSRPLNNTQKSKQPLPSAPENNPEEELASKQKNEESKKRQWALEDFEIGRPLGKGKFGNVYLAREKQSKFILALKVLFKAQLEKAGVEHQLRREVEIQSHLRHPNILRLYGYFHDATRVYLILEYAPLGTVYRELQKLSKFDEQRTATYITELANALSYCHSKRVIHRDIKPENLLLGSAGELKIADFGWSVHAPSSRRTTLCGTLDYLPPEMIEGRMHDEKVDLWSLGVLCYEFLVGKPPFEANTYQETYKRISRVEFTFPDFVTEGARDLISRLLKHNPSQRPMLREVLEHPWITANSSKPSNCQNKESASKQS
- Method summary: ADP-Glo kinase assay, Aurora A
- Format: biochemical
- Experimental context: Log[nM] 4.5; Set3
Property label: Aurora A % Activity Set3 (%)

I: Clc1ccc(Nc2ncnc3[nH]ccc23)cc1Cl [Compound 5]
II: c1ccc(Cc2ccc(Nc3ncnc4[nH]ccc34)cc2)cc1 [Compound 18]
[in] Field: lower Aurora A % Activity Set3 | Options: I / II The response must carry the label of the picked entry.
[out] I

---

- Measurement target: aurora A kinase (AURKA) (Homo sapiens)
- Construct: purchased BPS Bioscience (assay run externally by the vendor)
- Method summary: ADP-Glo kinase assay, Aurora A
- Type: biochemical
- Experimental context: 10 µM ATP, triplicate; read-out: AURKA IC50 ± SD
Property label: IC50 (µM)

Below, each entry is followed by its recorded IC50 result.
c1ccc(Nc2ncnc3[nH]ccc23)cc1
5.58
Clc1ccc(Nc2ncnc3[nH]ccc23)cc1Br
3.23
FC(F)(F)c1cccc(Nc2ncnc3[nH]ccc23)c1
5.78
Clc1ccccc1Nc1ncnc2[nH]ccc12
5.66

a: Brc1cccc(Nc2ncnc3[nH]ccc23)c1
b: Clc1ccc(Nc2ncnc3[nH]ccc23)cc1Cl
c: COc1ccc(Nc2ncnc3[nH]ccc23)cc1
d: c1ccc(Oc2ccc(Nc3ncnc4[nH]ccc34)cc2)cc1
[in] Reorder: IC50, max to min. Answer by listing the labels in the requested order.
[out] d, c, b, a

A: Clc1cccc(Nc2ncnc3[nH]ccc23)c1
B: c1ccc(Cc2ccc(Nc3ncnc4[nH]ccc34)cc2)cc1
C: Cc1ccccc1Nc1ncnc2[nH]ccc12
[in] Rank the items in ascending order with respect to IC50. Answer by listing the labels in the requested order.
[out] A, B, C

I: Fc1cc(Nc2ncnc3[nH]ccc23)ccc1Cl
II: Cc1ccc(Nc2ncnc3[nH]ccc23)cc1
[in] Which of the two items, I and II , has the greater recorded IC50? The response must carry the label of the picked entry.
[out] II
(II: 5.45 µM, I: 3.29 µM)

---

- Measurement target: EGFR (Homo sapiens, UniProt P00533)
- Sequence (P00533 25-1210): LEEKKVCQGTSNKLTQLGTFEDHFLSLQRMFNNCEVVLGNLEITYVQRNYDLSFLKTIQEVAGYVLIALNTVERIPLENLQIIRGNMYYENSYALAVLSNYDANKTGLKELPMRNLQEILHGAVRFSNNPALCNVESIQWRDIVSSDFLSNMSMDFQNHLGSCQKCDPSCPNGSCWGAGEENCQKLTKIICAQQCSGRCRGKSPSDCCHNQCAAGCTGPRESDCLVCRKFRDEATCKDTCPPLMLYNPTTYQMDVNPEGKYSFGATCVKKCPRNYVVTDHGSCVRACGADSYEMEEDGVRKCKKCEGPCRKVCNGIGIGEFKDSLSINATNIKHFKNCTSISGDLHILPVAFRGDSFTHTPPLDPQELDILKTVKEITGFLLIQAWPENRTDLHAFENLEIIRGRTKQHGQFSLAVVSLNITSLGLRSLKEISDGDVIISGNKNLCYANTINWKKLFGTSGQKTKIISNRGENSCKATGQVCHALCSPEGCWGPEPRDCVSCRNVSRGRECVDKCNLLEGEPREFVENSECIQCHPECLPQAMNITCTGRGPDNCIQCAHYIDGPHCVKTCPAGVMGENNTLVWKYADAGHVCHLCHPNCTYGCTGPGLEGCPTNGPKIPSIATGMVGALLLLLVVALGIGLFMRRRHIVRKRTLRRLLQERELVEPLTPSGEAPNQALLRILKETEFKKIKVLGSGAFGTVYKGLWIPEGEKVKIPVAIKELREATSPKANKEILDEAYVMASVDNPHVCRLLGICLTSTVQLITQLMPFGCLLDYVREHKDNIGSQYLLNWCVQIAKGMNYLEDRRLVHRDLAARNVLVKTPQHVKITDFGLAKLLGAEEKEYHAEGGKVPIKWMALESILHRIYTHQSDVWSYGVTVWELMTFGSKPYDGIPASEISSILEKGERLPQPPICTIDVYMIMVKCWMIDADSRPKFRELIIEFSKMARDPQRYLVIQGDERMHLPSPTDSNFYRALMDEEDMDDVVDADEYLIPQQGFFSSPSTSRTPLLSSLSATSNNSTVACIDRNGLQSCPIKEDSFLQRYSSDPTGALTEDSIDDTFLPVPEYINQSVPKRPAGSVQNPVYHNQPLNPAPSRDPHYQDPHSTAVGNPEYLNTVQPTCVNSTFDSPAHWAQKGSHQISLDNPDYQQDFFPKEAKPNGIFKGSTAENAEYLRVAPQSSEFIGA
- Method summary: ADP-Glo kinase assay, EGFR
- Type: biochemical
- Parameters: purchased BPS Bioscience (assay run externally by the vendor)
- Experimental context: Log[nM] 2.0; Set2
Property label: EGFR % Activity Set2 (%)

Below, each entry is followed by its recorded EGFR % Activity Set2 result.
Cc1cccc(Nc2ncnc3[nH]ccc23)c1 [Compound 12]
19
Cc1ccccc1Nc1ncnc2[nH]ccc12 [Compound 15]
102
Fc1cc(Nc2ncnc3[nH]ccc23)ccc1Cl [Compound 3]
7
Clc1ccc(Nc2ncnc3[nH]ccc23)cc1 [Compound 4]
45

1: c1ccc(Nc2ncnc3[nH]ccc23)cc1 [Compound 1]
2: Clc1ccc(Nc2ncnc3[nH]ccc23)cc1Br [Compound 7]
[in] Which of the two items, 1 and 2 , has the greater recorded EGFR % Activity Set2? The response must carry the label of the picked entry.
[out] 1
(1: 71%, 2: 5%)

---

- Measurement target: EGFR (Homo sapiens, UniProt P00533)
- Method summary: ADP-Glo kinase assay, EGFR
- Format: biochemical
- Parameters: purchased BPS Bioscience (assay run externally by the vendor)
- Experimental context: Log[nM] 4.0; Set1
Property label: EGFR % Activity Set1 (%)

Below, each entry is followed by its recorded EGFR % Activity Set1 result.
Clc1ccc(Nc2ncnc3[nH]ccc23)cc1Cl
0
Cc1ccc(Nc2ncnc3[nH]ccc23)cc1
8
Nc1nc(Nc2cccc(Br)c2)c2cc[nH]c2n1
4
Clc1ccccc1Nc1ncnc2[nH]ccc12
8

A: Brc1ccc(Nc2ncnc3[nH]ccc23)cc1
B: c1ccc(Oc2ccc(Nc3ncnc4[nH]ccc34)cc2)cc1
C: Brc1cccc(Nc2ncnc3[nH]ccc23)c1
D: Cc1cccc(Nc2ncnc3[nH]ccc23)c1
E: COc1ccc(Nc2ncnc3[nH]ccc23)cc1
[in] Reorder: EGFR % Activity Set1, max to min. Answer by listing the labels in the requested order.
[out] E, B, A, D, C

I: c1ccc(Nc2ncnc3[nH]ccc23)cc1
II: c1ccc(Cc2ccc(Nc3ncnc4[nH]ccc34)cc2)cc1
[in] Which of the two items, I and II , has the greater recorded EGFR % Activity Set1? The response must carry the label of the picked entry.
[out] I
(I: 4%, II: 2%)
